Molecular target: T1, biotinylated 6His tag-AviTag-linked mature human IL-33 (residues 112 to 270) (human, UniProt O95760 112-270, biotin on the AviTag portion (BirA))
T1 construct: made in E. coli; also called biotinylated human IL-33 protein
T1 sequence: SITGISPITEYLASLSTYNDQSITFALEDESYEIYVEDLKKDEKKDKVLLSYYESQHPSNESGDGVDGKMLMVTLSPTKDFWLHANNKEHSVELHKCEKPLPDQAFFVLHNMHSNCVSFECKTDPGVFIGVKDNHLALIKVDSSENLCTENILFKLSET
Assay: SPR, IL-33 on chip, Fab supernatant as analyte
Hi there, I'd appreciate the recorded koff for every entry that follows.
The reply should be a number in s⁻¹, with the unit left off.

[in] For A25-2D01 (Fab) (Fab, V domains shown, Fab secreted by E. coli, tested as culture supernatant; also called V9) VH: EVQLLESGGGLVQPGGSLRLSCAASGFTFSNYYMHWVRQAPGKGLEWVSSISARSSYIYYADSVKGRFTISRDNSKNTLYLQMNSLRAEDTAVYYCARLATRNNAFDIWGQGTLVTVSS VL: QSVLTQPPSASGTPGQRVTISCSGSSSNIGRNAVNWYQQLPGTAPKLLIYASNMRVIGVPDRFSGSKSGTSASLAISGLRSEDEADYYCAAWDDSQKAWVFGGGTKLTVL , what is its reported koff?
[out] 1e-05

[in] Further, for A13-1F07 (Fab) (Fab, V domains shown, Fab secreted by E. coli, tested as culture supernatant; also called V6) VH: EVQLLESGGGLVQPGGSLRLSCAASGFTFSVYYMNWVRQAPGKGLEWVSSISRYSGYVYYADSVKGRFTISRDNSKNTLYLQMNSLRAEDTAVYYCARDIGGMDVWGQGTLVTVSS VL: QSVLTQPPSASGTPGQRVTISCTGSSSNIGAVYNVHWYQQLPGTAPKLLIYRNNQRPSGVPDRFSGSKSGTSASLAISGLRSEDEADYYCQSYDSRRWVFGGGTKLTVL ?
[out] 1e-05

[in] Quick one: A25-3H04 (Fab) (Fab, V domains shown, Fab secreted by E. coli, tested as culture supernatant; also called V17) VH: EVQLLESGGGLVQPGGSLRLSCAASGFTFSRYYMHWVRQAPGKGLEWVSSISAQSSHIYYADSVEGRFTISRDNSKNTLYLQMNSLRAEDTAVYYCARLATRQNAFDIWGQGTLVTVSS VL: QSVLTQPPSASGTPGQRVTISCSGSSSNIGRNAVNWYQQLPGTAPKLLIYASNMRRSGVPDRFSGSKSGTSASLAISGLRSEDEADYYCSAWDDSQKVVVFGGGTKLTVL
[out] 1e-05
